substrate: O=C(O)C(=O)c1ccc(O)cc1; test: initial rates of reductive amination, HPLC, Michaelis-Menten fit; type: biochemical, Corynebacterium glutamicum; conditions: 0.5 mM NADPH, 10 mM NH4Cl, 50 mM Tris-HCl pH 8.0, 30 °C, HPGA 1-20 mM
The following proteins are listed with their measured kcat/Km values.
Lab book: enter the figure in M⁻¹ s⁻¹, no units written.

protein	observation_type	reading
CgDAPDH^BC621 (Corynebacterium glutamicum ATCC 13032; D154G/H244N/Q150L/R195M/T169P) (protein, five-fold mutant BC621 in pET28a, recombinant in E. coli BL21(DE3), HisTrap purified) MTNIRVAIVGYGNLGRSVEKLIAKQPDMDLVGIFSRRATLDTKTPVFDVADVDKHADDVDVLFLCMGSATDIPEQAPKFAQFACTVDTYDNHRDIPRHRQVMNEAATAAGNVALVSTGWDPGMFSINRVYAAAVLAEHQQHTFWGPGLSLGHSGALRRIPGVQKAVQYPLPSEDALEKARRGEAGDLTGKQTHKMQCFVVADAADHERIENDIRTMPDYFVGYEVEVNFIDEATFDSEHTGMPNGGHVITTGDTGGFNHTVEYILKLDRNPDFTASSQIAFGRAAHRMKQQGQSGAFTVLEVAPYLLSPENLDDLIARDV	kcat/Km	3

Then this protein:
In plain terms, CgDAPDH^BC621 (Corynebacterium glutamicum ATCC 13032; D120S/D154G/H244N/Q150L/R195M/T169P/W144S) (protein, five-fold mutant BC621 in pET28a, recombinant in E. coli BL21(DE3), HisTrap purified) MTNIRVAIVGYGNLGRSVEKLIAKQPDMDLVGIFSRRATLDTKTPVFDVADVDKHADDVDVLFLCMGSATDIPEQAPKFAQFACTVDTYDNHRDIPRHRQVMNEAATAAGNVALVSTGWSPGMFSINRVYAAAVLAEHQQHTFSGPGLSLGHSGALRRIPGVQKAVQYPLPSEDALEKARRGEAGDLTGKQTHKMQCFVVADAADHERIENDIRTMPDYFVGYEVEVNFIDEATFDSEHTGMPNGGHVITTGDTGGFNHTVEYILKLDRNPDFTASSQIAFGRAAHRMKQQGQSGAFTVLEVAPYLLSPENLDDLIARDV has a documented kcat/Km of 18
